test system: MS2 coat protein; experiment: apparent KD of MS2 coat protein; designed switch direction (-1 OFF switch, 1 ON switch): -1; higher = weaker reporter binding; settings: Eterna round: R95; input ligand: microRNA oligo, concentration not stated
Category scheme (apparent KD of MS2 coat protein): low end (below 30 nM), middle (30 nM to below 70 nM), high end (70 nM or more)

>  <sequence.string>
UCGGCGCGAGGAUAUACGGUUGCUUGGUAGGGUCGUGGCGUACAUGAGGAUCACCCAUGUAGAAGGCGCGCCGC [Apr-15 SS2-31] (puzzle: Exclusion 2)

>  <label>
low end

$$$$
>  <sequence.string>
GGAGAGUCAGGAUAUCGAAGGUAGUGGAGAGGAGUGUGGUACGAGAAGGGACAUGAGGAUCACCCAUGUAGGUG [JR_Exclusion4)Sub010] (puzzle: Exclusion 4)

>  <label>
high end

$$$$
>  <sequence.string>
AAAAUGCAAGGAUAUCGCGAUAAAUACAUGAGGAUCACCCAUGUGAUUACGUGGGCACGGCGAGAAGGUGCUAAAA [Amadius] (puzzle: Exclusion 5)

>  <label>
low end

$$$$
>  <sequence.string>
AGUAGUAGUAUCCGAUCUUACAUGAGGAUCACCCAUGUAUCUAGACGUGCACGCGAUGCUCGUCAGACUACCAGAUG [salish99_TOv1_r3_052] (puzzle: Sensor v3, turn-off variant 1)

>  <label>
middle

$$$$
>  <sequence.string>
GGUGCGUUUGUGAGGAUAUGCUGGUCCUUGGAUCCGCAGAAGGCACAUGAGGAUCACCCAUGUGGUGUCGUACC [salish99_Bmod_Ex4_034] (puzzle: Brourd's mod of Exclusion 4)

>  <label>
high end

$$$$
>  <sequence.string>
GAAGAAGAGAGAAAAGAAAACAUGAGGAUCACCCAUGUGAGAAGAUGAGGGUGAUACAGGCUAUAUGCUCGUCUUAU (puzzle: Sensor v3, turn-off variant 1)

>  <label>
low end

$$$$
>  <sequence.string>
UUCCUCGUUGUGAGGAUAUCGUCCUAUUUUUGUUACGAGAAGGCACAUGAGGAUCACCCAUGUUACUUGAUGUU [JR_BMOE4_Sub071] (puzzle: Brourd's mod of Exclusion 4)

>  <label>
low end

$$$$
>  <sequence.string>
AAACCUAUAGGAUAUACAUGAGGAUCACCCAUGUUGCGAUUUUUUAGGUAACAGAUCCGUAGAAGGGUAGGGCA [Retebi] (puzzle: Exclusion 3)

>  <label>
low end

$$$$
>  <sequence.string>
CAGGAUAGAGGAUAUACAUAGAUACAGAUUCAUGUGAUCCUACAUGAGGAUCACCCAUGUAGAAGGCUAUCCUG [Fiskers Ex 2 - 21] (puzzle: Exclusion 2)

>  <label>
high end

$$$$
>  <sequence.string>
CCUCUACAUGAGGAUCACCCAUGUGAGGAUAUCUCGGAGCAGCCACUUAAGGCGCUCCAGAGAAGGCACGUGUA [Resogeorza] (puzzle: Exclusion 1)

>  <label>
low end

$$$$
>  <sequence.string>
UAGAAGCUCAGGGAGUGAGACAUGAGGAUCACCCAUGUGGUGGUAGGGAACAAGCUUUUUGCACGUACUUAUGAGGA [JR_SV3TOV1_Sub006] (puzzle: Sensor v3, turn-off variant 1)

>  <label>
high end

$$$$
>  <sequence.string>
AGUACUAACACGAAAGUGUUAGUACAAUAAGCUAGUGGAACAUGAGGAUCACCCAUGUCCUCAUUAGCUCGUCUUAU [Mat - Sensor v3 - Turn-off var 2 - D33] (puzzle: Sensor v3, turn-off variant 2)

>  <label>
middle

$$$$
>  <sequence.string>
ACAAGCUUUGAGUUCGUCUUAUACACUCCUAAUAAGAAAACAUGAGGAUCACCCAUGUAAGAAAUAAGAACUCAUGU [Sesor Array 3 - Jieux - Sensor v3, turn-off variant 2] (puzzle: Sensor v3, turn-off variant 2)

>  <label>
high end

$$$$
>  <sequence.string>
AUCAUGUAAGGAUAUCUGACAUGUGACGAAAGUCACUGUUCAGAGAAGGUACAUGAGGAUCACCCAUGUAGAAC [Ex4-3: 43] (puzzle: Exclusion 4)

>  <label>
middle

$$$$
>  <sequence.string>
UUAUAUAGUGUGAGGAUAUGCUGGUCCUUGGAUCAGCAGAAGGCACAUGAGGAUCACCCAUGUAGUUAAUUUUA [JL bmx4 3.03] (puzzle: Brourd's mod of Exclusion 4)

>  <label>
low end

$$$$
>  <sequence.string>
GUGAAACAUGAGGAUCACCCAUGUGAGGAUAUGUUUUAGUACUGCAGACAGUACAUCUAUAGAAGGCACAAUGG [Mat - Mod of JL D74] (puzzle: Exclusion 1)

>  <label>
middle

$$$$
>  <sequence.string>
AUUUUAACAUAGGAUAUCGAAUUUAUUAUUUAACGAGAAGGAUGAACAUGAGGAUCACCCAUGUGGUAUCAUGG [JL-ex6-3.02] (puzzle: Exclusion 6)

>  <label>
high end

$$$$
>  <sequence.string>
AUCUUGUAAGGAUAUCUUACAAGUGACUUCGGUCACAGUUAAGAGAAGGUACAUGAGGAUCACCCAUGUAUAAC [Ex4-3: 38] (puzzle: Exclusion 4)

>  <label>
low end

$$$$
>  <sequence.string>
UGAUCUUGUGUCAGGAUAUGCUGGUCUCCUCUCCAGCAGAAGGGACAUGAGGAUCACCCAUGUUCUCUCUUUUU [Magic-11] (puzzle: Brourd's mod of Exclusion 4)

>  <label>
low end

$$$$
>  <sequence.string>
CUUUCGUGAGGAUAUCAGUAGUAAAAAAAUAAAAUUACUACUGAGAAGGCACAUGAGGAUCACCCAUGUUCCUC [salish99_ex3_r3_097] (puzzle: Exclusion 4)

>  <label>
low end

$$$$

###

tested on: MS2 coat protein; test: apparent KD of MS2 coat protein; designed switch direction (-1 OFF switch, 1 ON switch): -1; higher = weaker reporter binding; conditions: input ligand: FMN 200 uM

>  <sequence.string>
AAGAGGCGGACAGGAUAUGGGAAAUUGUAAAGACCAGAAGGGUCGGCGAAAAUACAUGAGGAUCACCCAUGUGACUCAUGACCA [AK ExNG1-7.1] (Eterna round: R96, puzzle: Exclusion NG 1)

>  <readout.unit>
nM

>  <apparent KD of MS2 coat protein>
913

$$$$
>  <sequence.string>
ACUUGUUGUCCUUGAUUUUACAUGAGGAUCACCCAUGUUAUUUUGAUUAUGAUGUGUAAGUUUGUUGCUCGUUUUAU [JR_STOV1_Sub067] (Eterna round: R97, puzzle: Sensor, turn-off variant 1)

>  <readout.unit>
nM

>  <apparent KD of MS2 coat protein>
61.9

$$$$
>  <sequence.string>
GUCAUCACACAUGGGAUCAACAUGAGGAUCACCCAUGUUGCCAAGUUGUUUGCACGUCUUAUCAUACGUUUUUCGAG [Mod-Jxh] (Eterna round: R97, puzzle: Sensor, turn-off variant 1)

>  <readout.unit>
nM

>  <apparent KD of MS2 coat protein>
22.9

$$$$
>  <sequence.string>
CUUCUGUGAGGAUAUGUUAGUUCCCAGCAAAUCGCUGGGAGACAGAAGGCACAUGAGGAUCACCCAUGUGGGCG [Vexeanra] (Eterna round: R96, puzzle: Exclusion 4)

>  <readout.unit>
nM

>  <apparent KD of MS2 coat protein>
612

$$$$
>  <sequence.string>
AUCGGACAUGAGGAUCACCCAUGUCAGGAUAUCUGGAACCAUUGGCAGAUGAGGGAAAAGAGAAGGGACAGUGG [EX1 C.3] (Eterna round: R97, puzzle: Exclusion 1)

>  <readout.unit>
nM

>  <apparent KD of MS2 coat protein>
20.2

$$$$
>  <sequence.string>
UUCGUGCAGCUUUGCUGUACGCGUACAUGAGGAUCACCCAUGUAGGAUAUGGUAGGCUUUGCUUACUAGAAGGAUAUGGUGAGC [JL EXNG3 1.33] (Eterna round: R96, puzzle: Exclusion NG 3)

>  <readout.unit>
nM

>  <apparent KD of MS2 coat protein>
85.6

$$$$
>  <sequence.string>
CCGCAACAUGAGGAUCACCCAUGUCAGGAUAUCGUACGUUCGUCGAAAGACGAUCGUACGAGAAGGGUGUGCGG [Eli x1 4.36] (Eterna round: R97, puzzle: Exclusion 1)

>  <readout.unit>
nM

>  <apparent KD of MS2 coat protein>
79.8

$$$$
>  <sequence.string>
AAAACGGACCGAGGAUAUACACGAUAUCUUUGCGUAGAAGGCGGACCGGCGACUUGAGGAUCACCCAAGUGUCCUCUUUUGCGG [Mutated MS2 EX1.4] (Eterna round: R96, puzzle: Exclusion NG 1)

>  <readout.unit>
nM

>  <apparent KD of MS2 coat protein>
323

$$$$
>  <sequence.string>
GGCCUGUUAGGAUAUUAGUAGUAGUCAGAAAAGACUAUUACUGAGAAGGAACAUGAGGAUCACCCAUGUUGGCC [Mat - Exclusion 4 - Eli Mod - D39] (Eterna round: R97, puzzle: Exclusion 4)

>  <readout.unit>
nM

>  <apparent KD of MS2 coat protein>
17.2

$$$$
>  <sequence.string>
GGCAUGUAAGGAUAUGCCACUGAGUGCUUUGCGCUCAGGAAGCAGAAGGUACAUGAGGAUCACCCAUGUGAUAA [jl-ex4-4.52 ViennaUCT mod] (Eterna round: R97, puzzle: Exclusion 4)

>  <readout.unit>
nM

>  <apparent KD of MS2 coat protein>
109

$$$$

Cited source: the supplement of paper PMC9170038
